# experimentalTarget: recombinant mouse sEH (MsEH) (Mus musculus, UniProt P34914)
# measurementProtocol: Inhibition of recombinant mouse sEH (MsEH)
# Assay type: biochemical
# conditionContext: Table 1; MsEH 0.13 μM; read-out: Mouse sEH IC50
Under this convention, yes (1) denotes IC50 strictly below 60 nM and no (0) denotes IC50 at or above 60 nM.

Please review the entries below; each comes with its answer.
compound: O=C(NCc1ccccc1)NC1CCCCC1
className: yes (1)
//
compound: O=C(NCCc1ccc(Cl)cc1)NC1CCCCC1
className: no (0)
//
compound: O=C(NCCCN1CCOCC1)NC1CCCCC1
className: no (0)
//
compound: CC(C)(C)C1CCC(NC(=O)NC2CCCCC2)CC1 (stereo not shown)
className: yes (1)
//
compound: CCCCCCCCCCCCNC(=O)NCC(C)C
className: yes (1)

Threshold test, IC50 < 60 nM: O=C(Nc1cccc(Cl)c1)NC1CCCCC1
no (0)

Okay, and O=C(NC1CCCCC1)NC1CC2CCC1C2 (stereo not shown) ?
yes (1)

###

Answer each item with its documented IC50.
# experimentalTarget: Human sEH (HsEH) (Homo sapiens, UniProt P34913)
# Sequence (P34913 whole entry): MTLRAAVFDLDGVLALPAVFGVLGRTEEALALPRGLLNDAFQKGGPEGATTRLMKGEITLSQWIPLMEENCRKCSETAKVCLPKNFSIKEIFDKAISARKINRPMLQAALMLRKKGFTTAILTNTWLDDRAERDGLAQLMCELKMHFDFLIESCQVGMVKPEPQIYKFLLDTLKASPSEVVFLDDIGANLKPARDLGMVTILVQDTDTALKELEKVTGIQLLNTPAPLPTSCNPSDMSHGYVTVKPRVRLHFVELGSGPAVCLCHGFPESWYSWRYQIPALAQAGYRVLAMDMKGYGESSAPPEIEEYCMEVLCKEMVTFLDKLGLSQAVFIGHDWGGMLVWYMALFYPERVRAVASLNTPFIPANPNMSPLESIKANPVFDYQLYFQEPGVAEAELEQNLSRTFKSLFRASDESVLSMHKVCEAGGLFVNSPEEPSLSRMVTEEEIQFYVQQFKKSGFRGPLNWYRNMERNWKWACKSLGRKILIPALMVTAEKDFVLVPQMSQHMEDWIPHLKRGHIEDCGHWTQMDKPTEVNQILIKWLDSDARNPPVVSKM
# measurementProtocol: Inhibition of recombinant human sEH (HsEH)
# Assay type: biochemical
# conditionContext: Table 1; HsEH 0.26 μM
Numbers only, in nM.

// for each compound in input: emit IC50
1. Nc1ccc(NC(=O)NC2CCCCC2)cc1
2. O=C(NCCNc1ccccc1)NC1CCCCC1
3. Cc1cccc(C)c1NC(=O)NC1CCCCC1
4. CCCCCCCCCCCCNC(=O)NC1CCC1
5. CC1CCC(NC(=O)NC2CCCCC2)CC1 (centres unmarked)
6. O=C(Nc1ccc(Cl)c(Cl)c1)Nc1ccc(Cl)c(Cl)c1
7. O=C(NC1CCCCC1)Oc1ccccc1CO

1: 2200; 2: 8300; 3: 180; 4: 23000; 5: 100; 6: 260; 7: 320

// for each compound in input: emit IC50
1. CCCCCCCCNC(=O)Nc1cccc(Cl)c1
2. O=C(NCc1ccncc1)NC1CCCCC1
3. CCCCCCCCCNC(=O)NC1CCCCC1
4. O=C(NCC12CC3CC(CC(C3)C1)C2)NC12CC3CC(CC(C3)C1)C2
5. O=C(Nc1ccccc1)NC1CCCCC1
6. CCOC(CCCNC(=O)Nc1cccc(Cl)c1)OCC
7. O=C(NC1CCCCC1)OCc1c2ccccc2cc2ccccc12

1. 180
2. 2500
3. 100
4. 100
5. 1390
6. 3770
7. 330

###

# experimentalTarget: recombinant mouse sEH (MsEH) (Mus musculus)
# Sequence (P34914 1-554): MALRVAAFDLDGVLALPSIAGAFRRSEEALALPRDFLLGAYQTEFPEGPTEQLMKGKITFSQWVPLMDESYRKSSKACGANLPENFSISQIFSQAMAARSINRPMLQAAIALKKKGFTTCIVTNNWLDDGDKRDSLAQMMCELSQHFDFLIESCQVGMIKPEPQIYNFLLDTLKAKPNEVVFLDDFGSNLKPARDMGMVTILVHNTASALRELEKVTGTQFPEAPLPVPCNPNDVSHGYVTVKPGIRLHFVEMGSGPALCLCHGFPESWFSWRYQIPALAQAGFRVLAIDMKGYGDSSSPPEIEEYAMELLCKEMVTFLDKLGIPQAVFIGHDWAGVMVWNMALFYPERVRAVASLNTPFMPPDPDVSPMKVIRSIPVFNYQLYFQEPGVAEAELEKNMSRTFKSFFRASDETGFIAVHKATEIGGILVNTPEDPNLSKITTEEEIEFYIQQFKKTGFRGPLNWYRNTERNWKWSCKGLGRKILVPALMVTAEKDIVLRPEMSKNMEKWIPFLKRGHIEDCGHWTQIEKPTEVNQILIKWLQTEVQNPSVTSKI
# measurementProtocol: Inhibition of recombinant mouse sEH (MsEH)
# Format: biochemical
# conditionContext: Table 1; MsEH 0.13 μM; read-out: Mouse sEH IC50
recordedMetric: pIC50
Give bare numbers, as −log10 of the molar value.

Worked cases, pIC50 given:
compound: CCCCCCCCNC(=O)NC1CCCCC1
pIC50: 7.22

compound: O=C(O)CCCCCCCCCCCNC(=O)Nc1ccc2ccccc2c1
pIC50: 6.15

compound: O=C(NC1CCCCC1)OCc1cccc2ccccc12
pIC50: 7.30

// for each compound in input: emit pIC50
1. O=C(NC1CCCCC1)NC1C2CC3CC(C2)CC1C3 (stereo not drawn)
2. CCCCCCCCCNC(=O)NCCC
3. CC1CCCCC1NC(=O)NC1CCCCC1 (stereo not drawn)

1. 7.30
2. 6.42
3. 7.30
